# test-system: hMPV F protein on hMPV/A virus (human metapneumovirus, subtype A, UniProt Q6WB98 19-539)
# Sequence (Q6WB98 19-539): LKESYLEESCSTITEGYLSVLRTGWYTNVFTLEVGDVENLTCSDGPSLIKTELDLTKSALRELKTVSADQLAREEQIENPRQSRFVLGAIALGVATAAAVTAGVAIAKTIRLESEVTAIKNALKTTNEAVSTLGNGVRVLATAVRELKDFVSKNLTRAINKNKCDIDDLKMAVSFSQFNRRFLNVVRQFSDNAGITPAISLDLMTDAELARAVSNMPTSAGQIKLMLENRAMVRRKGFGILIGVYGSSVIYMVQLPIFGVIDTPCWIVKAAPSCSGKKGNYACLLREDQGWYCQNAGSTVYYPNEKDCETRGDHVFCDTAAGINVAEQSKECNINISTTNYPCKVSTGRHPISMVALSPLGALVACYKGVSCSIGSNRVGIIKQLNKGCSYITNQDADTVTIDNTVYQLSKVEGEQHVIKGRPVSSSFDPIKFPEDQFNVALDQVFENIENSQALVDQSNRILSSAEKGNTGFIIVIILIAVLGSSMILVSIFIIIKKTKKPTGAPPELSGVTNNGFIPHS
# assay-overview: cell-based or functional assay
measured-attribute: hMPV/A RL Bx Titer (Log 2), microneutralization assay (log2)
Report as a plain number; the unit log2 is understood.

// sample 17D10 hIgG1 (antibody, V domains shown, Recombinant form with human IgG1 Fc; also called Human 17D10 mAB; 171D10 hIgG1) VH: QVQLQQPGAELVKPGASVKMSCKASGYTFTSYWITWVKQRPGQGLEWIGDIYPGSGSITYNEKFKTKATLTVDTSSSTAYMQLNSLTSEDSAVYYCAGLLRLTFDVWGTGTTVTVSS VL: DIQLTQTTSSLSASLGDRVTISCRASQDISNYLNWYQQKPDGTVKLLISYTSGLHSGVPSRFSGSGSGTDYSLTISNLEQEDIATYFCQQGNTLPWTFGGGTKLEIKR , its hMPV/A RL Bx Titer (Log 2), microneutralization assay was 10.5

// sample 17D10 (mouse) (antibody, V domains shown, Mouse IgG1 / kappa; also called Mouse 17D10 mAB; 17D10 mIgG) VH: QVQLQQPGAELVKPGASVKMSCKASGYTFTSYWITWVKQRPGQGLEWIGDIYPGSGSITYNEKFKTKATLTVDTSSSTAYMQLNSLTSEDSAVYYCAGLLRLTFDVWGTGTTVTVSS VL: DIQLTQTTSSLSASLGDRVTISCRASQDISNYLNWYQQKPDGTVKLLISYTSGLHSGVPSRFSGSGSGTDYSLTISNLEQEDIATYFCQQGNTLPWTFGGGTKLEIK , its hMPV/A RL Bx Titer (Log 2), microneutralization assay was 10

// sample 13E10 hIgG1 (antibody, V domains shown, Recombinant form with human IgG1 Fc) VH: EVKLVESGGGLVQPGGSLSLSCAASGFTFTDYYMNWVRQPPGKALEWLGFIRNKDNGYTTEYSASVKGRFTISRDNSQSILYLQMNALRAEDSATYYCTRYYFGYDGDYFDYWGQGTTLTVSS VL: EIVLTQSPTTMAASPGEKITITCSASSSISSNYLHWYQQKAGFSPKLLIYRTSNLASGVPARFSGSGSGTSYSLTIGTMEAEDVATYYCQQGSSLPRTFGGGTKLEIKR , its hMPV/A RL Bx Titer (Log 2), microneutralization assay was 9
